- Experimental Protocol: gradient 5% acetonitrile 3 min, to 50% in 2 min, to 85% in 15 min, held 3 min, 100 µL/min
- Conditions: column: Zorbax Extend-C18 2.1 x 50 mm; eluents: water / acetonitrile, 0.1% formic acid
Readout: RP-LC retention time
Don't forget the unit after the value.

Solved cases below.
Test Smiles	Measured
Fc1ccccc1N1CCN(Cc2nc(-c3ccc(N4CCCCC4)nc3)no2)CC1	972 s
CCNc1cc(N2CCC(CCC(=O)Nc3ccc(OCC)cc3)CC2)ncn1	682 s
CCCCS(=O)(=O)N1CCc2nc(-c3ccc(OC)cc3)ncc2C1	983 s

Let us examine a further case.
**Q:** Dear colleague, I am looking for the recorded RP-LC retention time of the following compound: "Cc1ccccc1CNC(=O)c1cn(-c2ccc(-c3nc(C4CC4)no3)cn2)cn1"
**A:** 973 s

====

- Experimental Protocol: gradient 5% acetonitrile 3 min, to 50% in 2 min, to 85% in 15 min, held 3 min, 100 µL/min
- Conditions: column: Zorbax Extend-C18 2.1 x 50 mm; eluents: water / acetonitrile, 0.1% formic acid
Lab note: class by RP-LC retention time, see category 1 (below 700 s), category 2 (700 s to below 900 s), category 3 (900 s or more)

Study these solved cases before continuing.
Compound	Label Value
CC1=C(c2ccc(F)cc2)S(=O)(=O)N=C1N1CCC(NC(=O)C2CCOC2)CC1 (configuration not stated)	category 1
O=C(c1ccsc1)N1CCC(OCc2nc(C3CC3)no2)CC1	category 2
CCS(=O)(=O)N1C[C@@H](COC)[C@H](c2ccncc2)C1	category 1
Cc1ccc(NC(=O)CN2C(=O)CSC(C)C2=O)cc1Cl (configuration not stated)	category 2
Cc1ccc(CNC(=O)Nc2c(-c3ccccc3)nc3ccccn23)cc1	category 1
Cc1ccn2cc(C(=O)NCc3ccccc3)nc2c1	category 1

**Q:** For the record "COc1ccc(-c2nsc(SCC(=O)Nc3cc(C)on3)n2)cc1" , report the class its RP-LC retention time corresponds to.
**A:** category 2

**Q:** For the record "COC(=O)CNC(=O)N1CCN(Cc2ccc(C)cc2)c2ncccc21" , report the class its RP-LC retention time corresponds to.
**A:** category 1

**Q:** For the record CCOc1ccc2nc(NC(=O)C3CCCN3S(=O)(=O)c3cc(C(=O)OC)n(C)c3)sc2c1 (configuration not stated) , report the class its RP-LC retention time corresponds to.
**A:** category 3

**Q:** For the record "COc1ccc(-c2nc(-c3nnn(Cc4ccccc4)c3C)no2)cc1OC" , report the class its RP-LC retention time corresponds to.
**A:** category 3

====

- Experimental Protocol: gradient 5% acetonitrile 3 min, to 50% in 2 min, to 85% in 15 min, held 3 min, 100 µL/min
- Conditions: column: Zorbax Extend-C18 2.1 x 50 mm; eluents: water / acetonitrile, 0.1% formic acid
Reported RP-LC retention time values for a set of compounds

Solved cases below.
Compound	Readout	Measured
Cc1ccc(NC(=O)C2CCCN2S(=O)(=O)c2cc3c(cc2C)NC(=O)C(C)O3)cc1Cl (stereo not drawn)	RP-LC retention time	892 s
CC1CCC(NC(=O)C2CCN(S(=O)(=O)c3ccc4c(c3)NC(=O)C(C)O4)CC2)CC1 (stereo not drawn)	RP-LC retention time	876 s

Let us examine a further case.
**Q:** Dear colleague, I am looking for the recorded RP-LC retention time of the following compound: "CN(C)C(=O)c1cccc2c1CCN2C(=O)c1ccccc1"
**A:** 706 s
